Assay: chemical genetic growth profiling, strain panel (AID 1159580);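 note: tested at 20 µM; growth read once vehicle control cultures reached saturation at 30 °C; 1 = growth at the plate median or of vehicle wells; lower values mean less growth of the strain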
Conditions: S. cerevisiae deletion strains, growth OD, locus YBR229C, strain ROT2, hits give low values
In all, about 5,500 compounds went through this assay and about 2,000 (36%) were called active. Another 18% or so got no clear call; they are omitted. This is one part of the list.
reportedEndpoint: normalized growth
Field format: numeric only.

CSc1sc(-c2ccn[nH]2)c(-c2ccccc2)c1C#N :: 0.941
COc1ccc2[nH]cc(CCNC(C)=O)c2c1 :: 1.02
CN1CCN(CCCN2c3ccccc3Sc3ccc(Cl)cc32)CC1 :: 1

Assign normalized growth to the following record: Cc1cc(N=CNO)c2ccccc2n1
0.994

Provide normalized growth value for the following compound: COc1ccc(-c2c(C(=O)O)sc(SC)c2C#N)cc1
0.998

Quick one: give measured normalized growth for Cn1c([N+](=O)[O-])cnc1COC(N)=O
1.01

Specify reported normalized growth for the compound shown: CC1=CC(C)(C)NC(=S)N1
1.01

Specify normalized growth for O=c1c(-c2ccc3c(c2)OCO3)coc2cc(O)ccc12 and stop.
0.989

Name the recorded normalized growth of the compound listed here: Cn1nnnc1SCC1=C(C(=O)O)N2C(=O)C(NC(=O)C(OC=O)c3ccccc3)C2SC1 (centres undefined)
1

Fill in normalized growth for record O=C1OC(=O)C2C3CCC(O3)C12 (centres undefined)
1

Name the recorded normalized growth of the item CCC(=O)Oc1ccc(NC(=S)NCCCO)cc1 in your answer.
1

Item CC(C)(O)CC[C@@H](O)[C@](C)(O)C1CC[C@@]2(O)C3=CC(=O)C4C[C@@H](O)[C@@H](O)C[C@]4(C)C3CC[C@]12C (some centres undefined) : provide normalized growth
1

====

Experiment: chemical genetic growth profiling, strain panel (AID 1159580);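 note: tested at 20 µM; growth read once vehicle control cultures reached saturation at 30 °C; 1 = growth at the plate median or of vehicle wells; lower values mean less growth of the strain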
Details: S. cerevisiae deletion strains, growth OD, locus YDR318W, strain mcm21
In all, about 5,500 compounds went through this assay and about 2,000 (36%) were called active. About 18% were inconclusive and are not listed. Cut-off read from the data, not from the text of the source: active = normalized growth mostly below about 0.91 (no sharp cut-off); inconclusive = no clear call, values can overlap the other calls; inactive = mostly above about 0.92. This is one part of the list.
Give your call using only these classes: active, inactive

# count of solved cases: 5
NCCS :: inactive
C[N+]1(C)C2CC[C@H]1CC(OC(=O)C(O)c1ccccc1)C2 (some centres undefined) :: inactive
CC1(C)C[C@@H]2C(=O)CC[C@H]3O[C@]3(C)CC[C@H]21 :: inactive
C[C@]12CCC3c4ccc(O)cc4CCC3C1CC[C@@H]2OC(=O)CCC1CCCC1 (some centres undefined) :: inactive
O=C1c2ccc(O)c(O)c2C(=O)c2c(O)ccc(O)c21 :: inactive

Query: recorded result category for O=C1c2ccccc2C(=O)c2c1ccc(O)c2O in this test
active

Which result was noted for this compound in the test: Nc1ncnc2c1ncn2[C@@H]1O[C@H](CO)[C@@H](O)[C@@H]1O
inactive

====

Let's look at some molecules and their measured normalized growth.
Assay: chemical genetic growth profiling, strain panel (AID 1159580);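 note: tested at 20 µM; growth read once vehicle control cultures reached saturation at 30 °C; 1 = growth at the plate median or of vehicle wells; lower values mean less growth of the strain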
Conditions: S. cerevisiae deletion strains, growth OD, locus YDL101C, strain DUN1, hits give low values
The whole screen tested about 5,500 compounds, of which about 2,000 (36%) were called active. About 18% were inconclusive and are not listed. The list shows a part of the results.
Returns: the value as a bare number; no unit string appended.

COc1ccc(/C=C(\C#N)c2nc3ccccc3[nH]2)cc1OC :: 0.961
COc1ccc(/C(C#N)=C/c2ccc(OC)c(OC)c2)cc1 :: 0.985
Nc1ncnc2nc[nH]c12 :: 0.968

Using the record for CCCCC(=O)N(Cc1ccc(-c2ccccc2-c2nn[nH]n2)cc1)[C@H](C(=O)O)C(C)C , state its measured normalized growth.
0.988

Consider the molecule O=c1[nH]cnc2nc[nH]c12 . State its measured normalized growth.
0.999

Fill in reported normalized growth for this entry: CCCc1nc(C(C)(C)O)c(C(=O)OCc2oc(=O)oc2C)n1Cc1ccc(-c2ccccc2-c2nn[nH]n2)cc1
0.991

Determine from records and report normalized growth for O=c1cc(-c2ccc(O)cc2)oc2cc(O[C@@H]3O[C@H](CO)[C@@H](O)[C@H](O)[C@H]3O[C@@H]3OC[C@](O)(CO)[C@H]3O)cc(O)c12
1.02

Provide measured normalized growth value, entry: N#C/C(=C\C=C\c1ccccc1)c1nc2ccccc2[nH]1
0.973

Please list normalized growth recorded for the molecule c1coc(CNc2ncnc3nc[nH]c23)c1
0.995

Please report the measured normalized growth for C[C@]12C=CC(=O)C=C1CCC1C2CC[C@]2(C)C(=O)CCC12 (stereo not given in full)
1.01

Cited source for all entries: PubChem BioAssay AID1159580
